# Tested on: SK-MEL-5 melanoma
# TEST: NCI-60 one-dose screen, 48 h
# PARTICULARS: 10 µM unless noted
The panel holds about 83,000 compounds, 20% with a hit somewhere; the sample as a whole holds those more often. The source made the active and inactive calls. The calls were made as follows: active = growth percent below 10; inactive = the rest.
Possible outcomes: active, inactive

• Oc1ccc(-c2nnc(SCc3ccc(O)c4ncccc34)o2)cc1 = active
• CC(C)Sc1nc(NC2CC2)c(C#N)c(-c2ccccc2)n1 = inactive
• N#Cc1c(NC(=O)c2ccccc2C(F)(F)F)sc2c1CCC(=O)C2 = active
• O=C1[C@H]2Cc3c([nH]c4ccccc34)[C@@H](c3c(Cl)cccc3Cl)N2C(=O)CN1C1CCN(Cc2ccccc2)CC1 = inactive
• Cc1cc(O)c(=O)cc2c1C[C@H]1CC(C)(C)/C=C/C[C@]3(C)Oc4cc(=O)c(O)cc(C)c4C[C@H]3C[C@H](O)[C@@]1(C)O2 = active
• C(=C(\C1=NCCN1)n1cnc2ccccc21)/c1cccc2ccccc12 = inactive
• O=C(Nc1ccc(F)cc1)c1cc(-c2ccc(F)cc2F)ccc1O = active
• CCOC(=O)Nc1ccc(-c2nc(-c3cccc(O)c3)c(-c3ccnc(Br)c3)[nH]2)cc1 = inactive
• CCc1ccc(NC(=O)N[C@@H](Cc2cc(F)cc(F)c2)C(=O)N[C@@H]2C(=O)N3CCC[C@H]3C(=O)N3CCO[C@H](C)[C@H]3C(=O)N[C@@H](CO)C(=O)N3C[C@H](C)C[C@H]3C(=O)O[C@H]2C)c(F)c1 = active

###

Consider the following compounds and their measured growth readings.
# Test system: UO-31 renal
# TEST: NCI-60 one-dose screen, 48 h (100 = growth as untreated, 0 = no growth, -100 = all killed)
# PARTICULARS: 10 µM unless noted
This is part of a sample that, as a whole, favours compounds with a hit. Of some 83,000 tested, about 20% had one in any assay.
QUANTITY_MEASURED: growth (%)

* C=CCn1c(SCC(=O)Nc2cccc(C(=O)/C=C/c3cccc([N+](=O)[O-])c3)c2)nc2ccccc2c1=O | 79
* NS(=O)(=O)c1ccc(Nc2nc(N/N=C/c3ccc([N+](=O)[O-])cc3)nc(Nc3ccccc3)n2)cc1 | 81.9
* N#Cc1c(-c2cccs2)cc(-c2cnccn2)nc1SCC(=O)NNC(=S)Nc1ccc(F)cc1 | 79
* COc1ccc(-c2cc(-c3ccc(Cl)cc3)nc3nc(N)nn23)cc1 | 81

###

# Test system: SK-OV-3 ovarian
# TEST: NCI-60 one-dose screen, 48 h (100 = growth as untreated, 0 = no growth, -100 = all killed)
# PARTICULARS: 10 µM unless noted
The panel holds about 83,000 compounds, 20% with a hit somewhere; the sample as a whole holds those more often.
The entries below are paired with their reported growth.
QUANTITY_MEASURED: growth (%)

* CN1CCN(c2ccc(C(=O)Nc3cccc(-c4cn(-c5ccc(S(N)(=O)=O)cc5)nn4)c3)cc2C(F)(F)F)CC1 | 102
* CCC(C)[C@H]1OC(=O)[C@H](C(C)C)N(C)C(=O)[C@@H](C(C)C)OC(=O)[C@H](C(C)C)N(C)C(=O)[C@@H](C(C)CC)OC(=O)[C@H](C(C)C)N(C)C1=O (some centres undefined) | -15.3
* Oc1ccc(CSc2nnc(-c3ccc(Oc4ccccc4)cc3)o2)c2cccnc12 | 22
* Cn1cc(-c2nn3cc(-c4ccncc4)nc3s2)c2cc(Cl)ccc21 | 89.5
* O=C(/C=C/Nc1ccc(S(=O)(=O)O)cc1)c1ccc(F)cc1 | 117
* O=C(N/N=C\c1ccc(Cl)cc1)c1ccc2nc(-c3ccc(Br)cc3)[nH]c2c1 | 79.1
* CCNC(=O)Oc1ccc(/C(=C(/C)c2ccccc2)c2ccc(OCCN3CCCC3)cc2)cc1 | 95.8
* CCN1CCN(c2cc(C(=O)Nc3nc4ccc(Oc5ccnc(C(=O)NC)c5)cc4s3)cc(C(F)(F)F)c2)CC1 | 109
* CCOC(=O)c1c(Nc2ccccc2)nn2c(-c3ccc(Br)cc3)ccnc12 | 59.2

Data provenance is PubChem BioAssay (NCI).
